tested on: NCI-H522 lung; assay: NCI-60 one-dose screen, 48 h (100 = growth as untreated, 0 = no growth, -100 = all killed); conditions: 10 µM
About 83,000 compounds went through this panel and 20% of them were active in at least one assay; those are over-represented in the sample as a whole. Activity calls are given as the source filed them. How the source made its calls: active means growth percent below 10; inactive means the rest.

MOLECULE	growth
N=C1c2nc3n(c2C(=O)c2nc4n(c21)CCCC4)CCCC3	10.5% (inactive)
CN1CCC(CNc2cc(C3(C(=O)Nc4cc(C(=O)Nc5ccc(Cl)c(C(F)(F)F)c5)ccc4F)CC3)ncn2)CC1	46.6% (inactive)
COc1cc(/C=N/NC(=O)c2ccccc2Nc2cccc(C(F)(F)F)c2)cc(OC)c1OC	4.06% (active)
CC(=O)N(C)c1ccc(Nc2ccc(Nc3ccc(N(C)C(C)=O)cc3)c3c2C(=O)c2ccccc2C3=O)cc1	53.8% (inactive)
CC(=O)CSC(C)=O	105% (inactive)
CCCCCCCCCCCCCC[n+]1ccc(C(N)=O)cc1	-21.7% (active)
O=C(Nc1cccc(-n2cc(-c3ccncc3)c(-c3ccc(O)c(Cl)c3)n2)c1)c1ccc(N2CCOCC2)c(C(F)(F)F)c1	35.6% (inactive)
CCCCCCc1cc(N=Nc2ccc(S(=O)(=O)Nc3cc(C)nc(C)n3)cc2)c(O)cc1O	90.1% (inactive)
CCCCCCCC(C)NCCO (stereo unspecified)	84.9% (inactive)
N#CCCN(NC(=O)OCc1ccccc1)C(=O)OCc1ccccc1	120% (inactive)
COC(=O)c1ccc(=O)oc1	99.9% (inactive)

###

Below: a set of entries, each annotated with reported growth.
tested on: NCI-H460 lung; test: NCI-60 one-dose screen, 48 h (100 = growth as untreated, 0 = no growth, -100 = all killed); details: 10 µM
This is part of a sample that, as a whole, favours compounds with a hit. Of some 83,000 tested, about 20% had one in any assay.
MEASURE: growth (%)

COMPOUND	QUANTITATIVE READOUT
COc1cc(-c2nc(-c3nnc(-c4ccc(F)c(Cl)c4)o3)c3ccccn23)cc(OC)c1OC	7.43
CC(=O)N1N=C(c2ccc(Cl)cc2)CC1c1sc(Cl)nc1Cl (stereo not given)	107
COc1ccc2c(c1)-c1c(c3cc(OC)ccc3n(CCN(C)C)c1=O)C2=O	-4.73
c1ccc(CO[C@H]2CO[C@H]3[C@@H]2OC[C@H]3OCc2ccccc2)cc1	110
N#Cc1cc(-c2cc3ccccc3o2)oc1N	9.76
COc1ccc2c(c1)O/C(=C\c1ccc([N+](=O)[O-])o1)C2=O	-20.9
COc1cc(Nc2ccnc(NCCCNc3ccnc4cc(Cl)ccc34)n2)cc(OC)c1	-4.19
Cc1nc2c(c(=O)[nH]1)OCN(Cc1ccccc1)C2	110
Nc1cc2c(cc1Cl)-c1ccc([N+](=O)[O-])cc1/C2=N\O	48.8
COc1cc(Cl)cc(-c2nn(-c3cccc(NC(=O)Nc4ccc(Cl)c(Cl)c4)c3)cc2-c2ccncc2)c1	3.1

###

system: SF-539 CNS; assay: NCI-60 one-dose screen, 48 h; conditions: 10 µM
The panel holds about 83,000 compounds, 20% with a hit somewhere; the sample as a whole holds those more often. Active and inactive are the calls of the source. How the source made its calls: active means growth percent below 10; inactive means the rest.
Outcome codes: T (active), F (inactive)

COMPOUND	CATEGORY
O=C1Nc2ccccc2C1=NC1CCCCC1	F
N#CC1=C(Nc2ccccc2Cl)SC(c2ccccc2O)NC1=O (stereo not given)	F
COc1cc(NC(=O)CCSc2nc3ccc(C)cc3c(=O)n2Cc2ccccc2)cc(OC)c1OC	F
CC/C(=C(/c1ccc(OCCN(C)C)cc1)c1ccc(OC(=O)CCCCCCCCC(=O)c2c(C)[nH]c(/C=C3\N=C(c4ccc[nH]4)C=C3OC)c2C)cc1)c1ccccc1	F
CC(C)=CCc1cc(O)cc2c1OC(C=C(C)C)C1=C2C(=O)C2=C(C1=O)S(=O)(=O)CCN2 (stereo not given)	T
CNc1ccc(CSc2ccc(C)cc2)cc1	F
CC(=O)c1cc(Br)ccc1O	F
O=C(Nc1ccncc1)C(=O)c1cn(S(=O)(=O)c2ccc(F)cc2)c2ccccc12	F
O=[P@@]1(c2ccccc2)O[C@H](COCc2ccccc2)[C@@H](OCc2ccccc2)[C@H](OCc2ccccc2)[C@H]1O	F
CN(C)c1ccc(Cc2ccc(N(C)C)cc2Cl)c(Cl)c1	F

###

system: OVCAR-5 ovarian; assay: NCI-60 one-dose screen, 48 h (100 = growth as untreated, 0 = no growth, -100 = all killed); settings: 10 µM
About 83,000 compounds went through this panel and 20% of them were active in at least one assay; those are over-represented in the sample as a whole.
Attribute: growth
MEASURE: growth (%)

MOLECULE	QUANTITATIVE READOUT
CCN(CC)CCC(CNc1c(C)cnc2cc(Cl)ccc12)c1ccc(Cl)cc1 (stereo unspecified)	54.6
CS(=O)(=O)Nc1ccc(Nc2c3ccccc3nc3cc([N+](=O)[O-])ccc23)cc1	67.7
Nc1nccc(Nc2ccccc2)n1	95.9
COc1ccc(C(=O)/C=C/c2cc(-c3cc(OC)c(OC)c(OC)c3)n[nH]2)cc1	47.8
COc1ccc2c(c1OC)O/C(=C\c1ncc([N+](=O)[O-])n1C)C2=O	53.7
COc1ccc2c(c1)sc1nc(-c3ccccc3)c(-c3ccsc3)n12	51.6
O=C(CSSCC(=O)c1ccc(Cl)cc1)c1ccc(Cl)cc1	60.1
CCOC(=O)c1ccoc1	90.7
CN(C)CCNC(=O)c1cccn2c(=O)c3cc4ccccc4cc3nc12	29.6
COc1ccc2c(c1)O/C(=C\c1ccc([N+](=O)[O-])s1)C2=O	61.4
CCc1ccc2c(c1)N(CCO)C1=C(C(=O)OC1)C2c1ccccc1 (stereo unspecified)	93.9

###

Tested on: A498 renal
Assay: NCI-60 one-dose screen, 48 h (100 = growth as untreated, 0 = no growth, -100 = all killed)
Conditions: 10 µM
Method: Growth inhibition of the A498 human tumor cell line is measured as a screen for anti-cancer activity. Cells are grown in 96 well plates and exposed to the test compound for 48 hours. Compounds are tested at a single concentration, which is 10^-5 M for most compounds. The reported endpoint is percent growth (GI% or GIPRCNT), where numbers from 0 - 100% represent growth inhibition, and numbers from -100% - 0 represent cell death. For example, a value of 40 represents 60% growth inhibition. […]
This is part of a sample that, as a whole, favours compounds with a hit. Of some 83,000 tested, about 20% had one in any assay.
Cut-off 90% on growth, inclusive. At or above means 1.0; below means 0.0.

COMPOUND	CATEGORY
O=c1cc(-c2ccccc2)[nH]n1-c1nc2ccccc2[nH]1	0.0
O=C(Nc1ccc(CN2CCc3nc4cc(O)c(O)cc4cc32)cc1)c1ccc(Cl)c(Cl)c1	1.0
C(CCCC1=NCCO1)CCCC1=NCCO1	1.0
Cc1ccc(NC(=O)Nc2nc3ccccc3s2)cc1NC(=O)Nc1nc2ccccc2s1	1.0
CC(C)(C)NC/C(=C\c1ccccc1)C(=O)c1ccccc1	0.0
O=C(Nc1ccncc1)C(=O)c1cn(S(=O)(=O)c2cccc3ccccc23)c2ccccc12	0.0
CC(=O)c1cc(Cl)ccc1O	1.0
Cc1nc2ccc(CN(C)c3ccc(C(=O)N[C@@H](CCC(=O)O)C(=O)O)s3)cc2c(=O)[nH]1	0.0
CCN1Cc2c(/C=C/c3ccccc3)nc3ccc(OC)cc3c2N(c2cccc(Cl)c2)C1	0.0
O=C1N=NC2=C1c1c3ccccc3c(O)n1CC2	1.0
COC(=O)C(=C\c1ccc2c(c1)OCO2)/C(=C/c1ccc2c(c1)OCO2)C(=O)OC	1.0
COC(=O)C1=NNC(=S)N(c2cc(C)[nH]n2)C(=O)C1	0.0
c1ccc(CNc2ncnc3scc(-c4cccs4)c23)nc1	0.0
COc1cc(C(=O)/C=C/c2cc(-c3cc(OC)c(OC)c(OC)c3)n[nH]2)cc(OC)c1OC	0.0
COc1ccc(-c2nn(-c3cccc(NC(=O)c4ccc5c(c4)OCCO5)c3)cc2-c2ccncc2)cc1Cl	0.0
O=C(O)CN1C(=O)c2cccc3cccc(c23)C1=O	0.0
C=C1c2c(C)nn(-c3ccc(OC)cc3)c2N(C)C23C[C@@H]1C1(C)c4c(C)nn(-c5ccc(OC)cc5)c4N(C)C(C)(C[C@H]12)C3 (stereo partly specified)	0.0
CCOC(=O)C(=Cc1ccc(Br)cc1)C(=O)OCC	0.0
Cc1ccc(C(=O)Nc2cccc(F)c2)cc1NC(=O)C1(c2ncnc3[nH]ccc23)CC1	1.0

###

system: MALME-3M melanoma; test: NCI-60 one-dose screen, 48 h (100 = growth as untreated, 0 = no growth, -100 = all killed); settings: 10 µM
This is part of a sample that, as a whole, favours compounds with a hit. Of some 83,000 tested, about 20% had one in any assay.
MEASURE: growth (%)

ITEM SMILES	UNIT OF MEASUREMENT	QUANTITATIVE READOUT
CNc1ncc(-c2ccc(C(F)(F)F)cc2)c(NC2CCCCCC2)n1	%	61.3
COc1ccc2c(c1)O/C(=C\c1ccc([N+](=O)[O-])o1)C2=O	%	-37.1
CN(Cc1ccccc1)Cc1ccc([N+](=O)[O-])cc1I	%	84
Clc1ccc(Nc2ccnc(NCCCNc3ccnc4cc(Cl)ccc34)n2)cc1	%	-81
CCOC(=O)N/N=C\C(C)=N\NC(=O)OCC	%	84.5
C[C@]12CC[C@@H]3c4ccc(O)cc4C[C@@H](O)[C@H]3[C@@H]1CC[C@@H]2O	%	102
Cc1c(Cl)cccc1NC(=O)c1sc2nc3c(cc2c1N)C(=O)CCC3	%	40.1
O=C(Nc1cccc(-n2cc(-c3ccncc3)c(-c3cc(O)cc(Cl)c3)n2)c1)c1ccc(N2CCOCC2)c(C(F)(F)F)c1	%	-26.9
COc1ccc(-c2nn(-c3cccc(NC(=O)Nc4cccc(C(F)(F)F)c4)c3)cc2-c2ccncc2)cc1Cl	%	-10.4
CSc1nc(=O)n(Cc2ccc(F)cc2)c(=O)n1Cc1ccc(C)cc1	%	97.6
